Molecular target: T1, nanodisc embedded human CACNG1 expressed with a C-terminal PADRE-Flag-His tag (human, UniProt Q06432 1-222)
T1 construct: Captured on an anti-His Biacore surface; also called human CACNG1 nanodisc; CACNG1 nanodisc; not shown: C-terminal tag
T1 sequence (Q06432 whole entry): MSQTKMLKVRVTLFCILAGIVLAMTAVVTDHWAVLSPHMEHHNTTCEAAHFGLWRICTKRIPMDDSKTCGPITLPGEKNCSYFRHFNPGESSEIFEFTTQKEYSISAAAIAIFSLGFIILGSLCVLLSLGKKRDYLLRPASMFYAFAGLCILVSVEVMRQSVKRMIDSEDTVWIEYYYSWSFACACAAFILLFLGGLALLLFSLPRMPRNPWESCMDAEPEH
Assay: SPR, anti-His-captured nanodisc, 25 C
ENDPOINT LABEL: kon (M⁻¹ s⁻¹)

1) REGN9909 (antibody, mouse IgG2a, kappa, V domains shown, mIgG2a) VH: EVQLLESGGGLVQPGGSLRLSCAASGFTFNNYGMSWVRQGPGKGLEWVSSISGSGGTTFYADSVKGRFTISRDNSKNTLYLQMNSLRAEDTAVYYCGKGGYCSSSGCRHYGMDVWGQGTTVTVSS VL: QSVLTQPPSASGTPGQRVTISCSGSSSNIGNNYIYWYQRLPGTTPKLLIYRNNQRPSGVPDRFSGSKSGTSASLAISGLRSEDEADYYCAAWDDTLSGYVFGTGTKVTVLR : 331000
2) REGN10712 (antibody, human IgG4 S228P, lambda, V domains shown, hIgG4) VH: QVQLVESGGGVVQPGRSLRLSCAASGFTFSTYGMYWVRQTPGKGLEWVTVISFDGNKKYYADSVKGRFTISRDNSKNTLFLQMNSLKTEDTAVYYCAKSSNWNYGSFDIWGQGTMVTVSS VL: QSVLTQPPSVSGAPGQRVTISCTGSSSNIGAGYDVHWYQQLPGTAPRLLISYNSNRPSGVPDRFSGSKSGTSASLAITGLQAEDEADYYCQSYDRSLSGSVFGGGTQLTVLG : 733000
